- Tested on: CP237
- method-description: qHTS profiling for inhibitors of Plasmodium falciparum proliferation (AID 504749); further: nearly all actives have a fitted effect of over 60% in size; further: potency means the concentration at half of the fitted maximal effect
- measurement-conditions: P. falciparum in erythrocytes, SYBR Green DNA, 72 h; series mostly up to 28.7 µM
Records with an inconclusive call do not appear. The source made the active and inactive calls. The call rests on the fitted dose curve; in most records, active means well fitted inhibition curve with a large enough effect; inconclusive means small, poorly fitted or top-dose-only effect; inactive means flat fitted curve, though single readings scatter.
measured-metric: Potency

> print(dat)
                                   molecule        data.value
1            OC(c1ccccc1)(c1ccccc1)C1CCNCC1          inactive
2  CC(C)(C)OC(=O)c1ncn2c1[C@@H]1CCCN1C(=O)c1c(Br)cccc1-2          inactive
3  Cc1c(Cl)c(=O)oc2cc(OP(=O)(OCCCl)OCCCl)ccc12  7.94 µM (active)
4                       COC(=O)C1=CCCN(C)C1          inactive
5  CCN(CC)C(C)C(=O)c1ccccc1 (stereo unspecified)          inactive
6  C[C@H]1C(=O)O[C@@H]2CCN3CC=C(COC(=O)[C@](C)(O)[C@]1(C)O)[C@H]23          inactive
